# assay protocol: Oral bioavailability in Beagle dog at 1 mg/kg administered via gavage by LC-MS/MS analysis
# Format: ADME, organism-based, Canis lupus familiaris
# settings: in vivo
metric name: bioavailability (%)
Please reply with the bare figure in % and do not write the unit itself.

Q) Endpoint output: bioavailability of O=C(O)CNC(=O)c1c(O)c2c(n(Cc3ccc(C(F)(F)F)cc3)c1=O)COC2 . Value?
A) 25

* * *

# assay protocol: Volume of distribution in Beagle dog at 0.175 mg/kg, iv or 1 mg/kg, po administered via gavage by LC-MS/MS analysis
# Assay type: ADME, organism-based, Canis lupus familiaris
# settings: in vivo
metric name: Vd (L/kg)
Supply the numeric figure in L/kg, leaving out any unit text.

Q) Item O=C(O)CNC(=O)c1c(O)c2c(n(Cc3ccc(C(F)(F)F)cc3)c1=O)COC2 has what recorded Vd?
A) 5.6
